assay_text: In vivo pharmacokinetic study on cynomolgus monkeys, intravenous
conditions: cynomolgus monkey, plasma, iv, 1 mg/kg, Average of four animals; 1 mg/Kg IV, monkey
endpoint_label: AUC (ng·h/mL)

[[record]]
compound = "[2H]C([2H])([2H])C(O)(C([2H])([2H])[2H])C([2H])([2H])Nc1nc(Nc2ccnc(C(F)(F)F)c2)nc(-c2cccc(C(F)(F)F)n2)n1 [D8-Enasidenib]"
endpoint_label = "AUC"
numeric_value = 7900

[[record]]
compound = "CC(C)(O)CNc1nc(Nc2ccnc(C(F)(F)F)c2)nc(-c2cccc(C(F)(F)F)n2)n1 [Enasidenib, enasidenib, reference compound]"
endpoint_label = "AUC"
numeric_value = 5200


* * *

Recorded pIC50, one value per entry.
target_or_test_system: IDH2 R140Q (Homo sapiens, UniProt P48735, R140Q)
Sequence (P48735 40-452 R140Q): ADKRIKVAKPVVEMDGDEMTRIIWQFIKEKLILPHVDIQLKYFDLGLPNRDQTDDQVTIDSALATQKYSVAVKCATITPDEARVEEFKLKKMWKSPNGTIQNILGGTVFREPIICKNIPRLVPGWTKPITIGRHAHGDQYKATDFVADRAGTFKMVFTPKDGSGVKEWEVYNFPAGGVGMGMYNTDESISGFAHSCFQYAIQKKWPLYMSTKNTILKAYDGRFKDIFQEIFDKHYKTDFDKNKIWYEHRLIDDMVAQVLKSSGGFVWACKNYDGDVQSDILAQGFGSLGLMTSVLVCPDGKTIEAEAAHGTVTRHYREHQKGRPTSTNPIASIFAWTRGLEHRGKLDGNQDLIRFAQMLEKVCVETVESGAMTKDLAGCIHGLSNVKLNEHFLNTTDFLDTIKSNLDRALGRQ
assay_text: IC50 measurement against IDH2 R140Q (diaphorase/resazurin detection)
pIC50: −log10 of the molar value.
endpoint_label: pIC50

[[record]]
compound = "[2H]C([2H])([2H])C(O)(C([2H])([2H])[2H])C([2H])([2H])Nc1nc(Nc2ccnc(C(F)(F)F)c2)nc(-c2cccc(C(F)(F)F)n2)n1"
numeric_value = 6.44

[[record]]
compound = "CC(C)(O)CNc1nc(Nc2ccnc(C(F)(F)F)c2)nc(-c2cccc(C(F)(F)F)n2)n1 [Enasidenib, enasidenib, reference compound]"
numeric_value = 6.44


* * *

Recorded AUC, one value per entry.
assay_text: In vivo pharmacokinetic study on cynomolgus monkeys, intravenous
conditions: cynomolgus monkey, plasma, iv, 1 mg/kg, animal MK-101; 1 mg/Kg IV, monkey
Protocol: Test compounds were dissolved to yield a final concentration at 0.2 mg/mL. The study conducted formulation analysis by HPLC. The four animals assigned to the study had body weights within ±20% of the mean body weight. The study was conducted in a cross-over matter with four phases to minimize individual difference. The dose level was 1 mg/Kg and the drug was administrated through intravenous (IV) route. […]
endpoint_label: AUC (ng·h/mL)

[[record]]
molecule = "[2H]C([2H])([2H])C(O)(C([2H])([2H])[2H])C([2H])([2H])Nc1nc(Nc2ccnc(C(F)(F)F)c2)nc(-c2cccc(C(F)(F)F)n2)n1"
numeric_value = 8970

[[record]]
molecule = "CC(C)(O)CNc1nc(Nc2ccnc(C(F)(F)F)c2)nc(-c2cccc(C(F)(F)F)n2)n1 [Enasidenib, enasidenib, reference compound]"
numeric_value = 7780

